# target.system: MMP-2 (Homo sapiens)
# Construct: purchased SIGMA PF023
# Sequence (P08253 110-660): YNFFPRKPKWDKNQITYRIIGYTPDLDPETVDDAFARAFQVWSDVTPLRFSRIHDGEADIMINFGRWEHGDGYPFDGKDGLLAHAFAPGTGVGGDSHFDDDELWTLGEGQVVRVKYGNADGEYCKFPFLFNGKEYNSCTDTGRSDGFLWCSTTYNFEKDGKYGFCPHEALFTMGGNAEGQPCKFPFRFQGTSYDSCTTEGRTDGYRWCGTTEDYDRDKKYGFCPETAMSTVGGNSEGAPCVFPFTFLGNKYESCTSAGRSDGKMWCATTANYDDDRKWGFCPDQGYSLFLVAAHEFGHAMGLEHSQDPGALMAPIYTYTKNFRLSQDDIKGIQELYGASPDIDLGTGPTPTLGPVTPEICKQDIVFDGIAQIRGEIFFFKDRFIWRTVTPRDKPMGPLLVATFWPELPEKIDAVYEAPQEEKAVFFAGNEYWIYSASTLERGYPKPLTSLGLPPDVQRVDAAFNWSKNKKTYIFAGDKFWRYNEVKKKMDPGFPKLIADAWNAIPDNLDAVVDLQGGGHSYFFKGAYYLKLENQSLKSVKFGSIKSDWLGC
# assay.remarks: FRET peptide cleavage efficiency with MMP-2
# Type: biochemical
# condition.parameters: t = 60 min; standard conditions (Table 8)
Square brackets hold non-standard residues; d marks the D form. Ends that are not written are not given here. Tyr(3-NO2) = N[C@@H](Cc1ccc(O)c([N+](=O)[O-])c1)C(=O)O; Nle = CCCC[C@H](N)C(=O)O; 2Abz = Nc1ccccc1C(=O)O
# % cleavage MMP-2 t = 60 min values compiled below
readout.kind: % cleavage MMP-2 t = 60 min (%)

                                   substance                 readout_kind  value_measured
 0  SGRVYMLQG ([2Abz]SGRVYMLQG[Tyr(3-NO2)]-NH2) [LNK044]  % cleavage MMP-2 t = 60 min               0
 1  RGRKPQPLVD ([2Abz]RGRKPQPLVD[Tyr(3-NO2)]-NH2) [LNK039]  % cleavage MMP-2 t = 60 min              38
 2  RGRRGP ([2Abz]RGRRGP[Tyr(3-NO2)]-NH2) [LNK048]  % cleavage MMP-2 t = 60 min               0
 3  RGRKPY-Nle-LQG ([2Abz]RGRKPY[Nle]LQG[Tyr(3-NO2)]-NH2) [LNK036]  % cleavage MMP-2 t = 60 min              70
 4  RGRKSPANLVG ([2Abz]RGRKSPANLVG[Tyr(3-NO2)]-NH2) [LNK034]  % cleavage MMP-2 t = 60 min             100
 5  RGRKPYMLQG ([2Abz]RGRKPYMLQG[Tyr(3-NO2)]-NH2) [LNK035]  % cleavage MMP-2 t = 60 min              77
 6  SGRVQPLVD (not fully specified (N-terminus, C-terminus)) [LNK047]  % cleavage MMP-2 t = 60 min               5
 7  RGRKSPYMLQG ([2Abz]RGRKSPYMLQG[Tyr(3-NO2)]-NH2) [LNK037]  % cleavage MMP-2 t = 60 min              70
 8  RGRKVANLVG ([2Abz]RGRKVANLVG[Tyr(3-NO2)]-NH2) [LNK031]  % cleavage MMP-2 t = 60 min             100
 9  SGRVAPY-Nle-LQG ([2Abz]SGRVAPY[Nle]LQG[Tyr(3-NO2)]-NH2) [LNK043]  % cleavage MMP-2 t = 60 min              78
10  RQRKVANLVG ([2Abz]RQRKVANLVG[Tyr(3-NO2)]-NH2) [LNK032]  % cleavage MMP-2 t = 60 min             100
11  SGRVAPQPLVD (not fully specified (N-terminus, C-terminus)) [LNK046]  % cleavage MMP-2 t = 60 min              64
12  RGRKSPQPLVD ([2Abz]RGRKSPQPLVD[Tyr(3-NO2)]-NH2) [LNK040]  % cleavage MMP-2 t = 60 min              28
13  RGRKSPY-Nle-LQG ([2Abz]RGRKSPY[Nle]LQG[Tyr(3-NO2)]-NH2) [LNK038]  % cleavage MMP-2 t = 60 min              55
14  RGRRVANLVG ([2Abz]RGRRVANLVG[Tyr(3-NO2)]-NH2) [LNK033]  % cleavage MMP-2 t = 60 min             100
15  SGRVAPYMLQG ([2Abz]SGRVAPYMLQG[Tyr(3-NO2)]-NH2) [LNK042]  % cleavage MMP-2 t = 60 min              91
16  RGRKSQPLVD ([2Abz]RGRKSQPLVD[Tyr(3-NO2)]-NH2) [LNK041]  % cleavage MMP-2 t = 60 min               0

====

Property: % cleavage Matriptase t = 15 min; scope: individual substances
# target.system: matriptase (Homo sapiens)
# Construct: purchased R&D Systems 3946-SEB
# Sequence (Q9Y5Y6 615-855 limits assumed): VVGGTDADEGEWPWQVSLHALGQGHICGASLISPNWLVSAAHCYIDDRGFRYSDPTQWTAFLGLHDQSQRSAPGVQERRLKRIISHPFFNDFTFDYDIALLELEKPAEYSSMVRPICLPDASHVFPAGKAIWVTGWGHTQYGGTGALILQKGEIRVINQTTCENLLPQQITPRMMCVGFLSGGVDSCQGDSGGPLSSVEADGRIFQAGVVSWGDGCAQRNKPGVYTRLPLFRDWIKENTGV
# assay.remarks: FRET peptide cleavage efficiency with matriptase
# Format: biochemical
# condition.parameters: t = 15 min; standard conditions (Table 8)
Square brackets hold non-standard residues; d marks the D form. Ends that are not written are not given here. Tyr(3-NO2) = N[C@@H](Cc1ccc(O)c([N+](=O)[O-])c1)C(=O)O; Nle = CCCC[C@H](N)C(=O)O; 2Abz = Nc1ccccc1C(=O)O
readout.kind: % cleavage Matriptase t = 15 min (%)

In [3]: df
Out[3]:
                                   substance  value_measured
 0  RGRRGP ([2Abz]RGRRGP[Tyr(3-NO2)]-NH2) [LNK048]             100
 1  RGRKSPQPLVD ([2Abz]RGRKSPQPLVD[Tyr(3-NO2)]-NH2) [LNK040]             100
 2  RGRKSQPLVD ([2Abz]RGRKSQPLVD[Tyr(3-NO2)]-NH2) [LNK041]             100
 3  RGRKSPYMLQG ([2Abz]RGRKSPYMLQG[Tyr(3-NO2)]-NH2) [LNK037]              90
 4  RGRKSPANLVG ([2Abz]RGRKSPANLVG[Tyr(3-NO2)]-NH2) [LNK034]             100
 5  SGRVAPQPLVD (not fully specified (N-terminus, C-terminus)) [LNK046]              19
 6  SGRVAPY-Nle-LQG ([2Abz]SGRVAPY[Nle]LQG[Tyr(3-NO2)]-NH2) [LNK043]              24
 7  RGRRVANLVG ([2Abz]RGRRVANLVG[Tyr(3-NO2)]-NH2) [LNK033]             100
 8  SGRVYMLQG ([2Abz]SGRVYMLQG[Tyr(3-NO2)]-NH2) [LNK044]               0
 9  RGRKSPY-Nle-LQG ([2Abz]RGRKSPY[Nle]LQG[Tyr(3-NO2)]-NH2) [LNK038]             100
10  SGRVAPYMLQG ([2Abz]SGRVAPYMLQG[Tyr(3-NO2)]-NH2) [LNK042]              28
11  RGRKVANLVG ([2Abz]RGRKVANLVG[Tyr(3-NO2)]-NH2) [LNK031]              99
12  RQRKVANLVG ([2Abz]RQRKVANLVG[Tyr(3-NO2)]-NH2) [LNK032]              81
13  SGRVQPLVD (not fully specified (N-terminus, C-terminus)) [LNK047]               4
14  RGRKPYMLQG ([2Abz]RGRKPYMLQG[Tyr(3-NO2)]-NH2) [LNK035]              67
15  RGRKPY-Nle-LQG ([2Abz]RGRKPY[Nle]LQG[Tyr(3-NO2)]-NH2) [LNK036]              76
16  RGRKPQPLVD ([2Abz]RGRKPQPLVD[Tyr(3-NO2)]-NH2) [LNK039]              77

These entries and their values trace back to patent US20240400614A1.
